# credit: ChEMBL document CHEMBL3425439

Kindly supply the reported Ratio EC50 values for the records listed here.
- Test system: Human immunodeficiency virus 1
- assay: Ratio of EC50 for HIV-1 M3 harboring protease L10I, K20R, M36I, G48V, I62V, A71V, V82A, I93L mutant to EC50 for wild type HIV-1 3B
- Assay type: functional

Example entries and their recorded answers appear below.
| chemical-structure | Ratio EC50 |
| --- | --- |
| COc1ccc(S(=O)(=O)N(CC(C)C)C[C@@H](O)[C@H](Cc2ccccc2)NC(=O)O[C@H]2CO[C@H]3OC[C@H](OCC(=O)NCc4ccccc4)[C@H]32)cc1 | 1.7 |
| CC(C)CN(C[C@@H](O)[C@H](Cc1ccccc1)NC(=O)O[C@H]1CO[C@H]2OC[C@H](Cl)[C@H]21)S(=O)(=O)c1ccc(N)cc1 | 4 |

Need Ratio EC50 for each of these molecules.
1. CNc1nc2ccc(S(=O)(=O)N(CC(C)C)C[C@@H](O)[C@H](Cc3ccccc3)NC(=O)O[C@H]3CO[C@H]4OC[C@H](Cl)[C@H]43)cc2o1
2. CNC(=O)CO[C@H]1CO[C@@H]2OC[C@H](OC(=O)N[C@@H](Cc3ccccc3)[C@H](O)CN(CC(C)C)S(=O)(=O)c3ccc4nc(NC)oc4c3)[C@@H]21
3. CNc1nc2ccc(S(=O)(=O)N(CC(C)C)C[C@@H](O)[C@H](Cc3ccccc3)NC(=O)O[C@H]3CO[C@H]4OC[C@H](OCC(=O)N(C)C)[C@H]43)cc2o1
4. CNc1nc2ccc(S(=O)(=O)N(CC(C)C)C[C@@H](O)[C@H](Cc3ccccc3)NC(=O)O[C@H]3CO[C@H]4OC[C@H](F)[C@H]43)cc2o1

Reply text:
1.6
0.1
0.2
0.9
